IC50, EGFR^WT (Homo sapiens, UniProt P00533): measured values
One number for each entry, in nM.

Before answering, review these 2 worked examples.
CCn1c(=O)n(CC(=O)Nc2ccc(C(=O)NN=Cc3ccc(C)cc3)cc2)c(=O)c2cc(I)ccc21 = 350
CCCn1c(=O)n(CC(=O)Nc2ccc(-c3nnc(S)o3)cc2)c(=O)c2cc(I)ccc21 = 380

Report IC50 for every entry below.
1. CCn1c(=O)n(CC(=O)Nc2ccc(C(=O)NN=Cc3ccc(OC)cc3)cc2)c(=O)c2cc(I)ccc21
2. CCCn1c(=O)n(CC(=O)Nc2ccc(C(=O)NN=Cc3ccccc3)cc2)c(=O)c2cc(I)ccc21
3. CCCn1c(=O)n(CC(=O)Nc2ccc(C(=O)NN=Cc3ccc(Cl)cc3)cc2)c(=O)c2cc(I)ccc21
4. CCCn1c(=O)n(CC(=O)Nc2ccc(C(=O)OCC)cc2)c(=O)c2cc(I)ccc21

Outgoing:
1: 150; 2: 200; 3: 250; 4: 320

Where these numbers come from: paper PMC10716637
